Tested on: giant foxtail (Setaria faberii)
Assay: Test A preemergence
Type: in vivo
Details: 125 g ai/ha, Preemergence; visual injury after approximately 10 d; 0 to 100 scale where 0 is no effect and 100 is complete control
observation.type: Plant response rating, Foxtail, Giant
# respond with the number and nothing more

Some entries whose results are on file:
>  <compound>
NS(=O)(=O)c1ccccc1NC(=O)C1C(=O)NCC1c1cccc(C(F)(F)F)c1 (stereo not drawn)

>  <endpoint.value>
60

$$$$
>  <compound>
CN1CC(c2c(F)cccc2F)C(C(=O)Nc2cccc(F)c2F)C1=O (stereo not drawn)

>  <endpoint.value>
90

$$$$
>  <compound>
O=C1NCC(c2cc(C(F)(F)F)ccc2F)C1C(=O)Nc1cccc(F)c1F (stereo not drawn)

>  <endpoint.value>
90

$$$$

Enquiry: So what does the record say about Plant response rating, Foxtail, Giant for O=C1NCC(c2cc(F)c(F)cc2F)C1C(=O)Nc1ccc(F)c(F)c1F (stereo not drawn) ?
Return: 90

Enquiry: Next up: CN1CC(c2cccc(C(F)(F)F)c2)C(C(=O)Nc2cccc(F)c2F)C1=O (stereo not drawn)
Return: 90

Enquiry: Next up: CN1CC(c2cccc(C(F)(F)F)c2)C(C(=O)Nc2ccccc2S(C)(=O)=O)C1=O (stereo not drawn)
Return: 90

Enquiry: Next up: Cc1ccc(C2CNC(=O)C2C(=O)Nc2cccc(F)c2F)cc1C(F)(F)F (racemic)
Return: 90

Enquiry: Next up: O=C1NCC(c2cc(C(F)(F)F)ccc2F)C1C(=O)Nc1ccc(F)cc1F (stereo not drawn)
Return: 90

Enquiry: Next up: CC(C)Oc1cccc(C2CNC(=O)C2C(=O)Nc2ccccc2F)c1 (stereo not drawn)
Return: 90

Enquiry: Next up: O=C(Nc1cccc(F)c1F)C1C(=O)N(CC=CCl)CC1c1cccc(C(F)(F)F)c1 (stereo not drawn)
Return: 70

Enquiry: Next up: O=C(Nc1ccccc1F)C1C(=O)N(CC=CBr)CC1c1cccc(C(F)(F)F)c1 (stereo not drawn)
Return: 70

Enquiry: Next up: C=CCN1CC(c2cccc(C(F)(F)F)c2)C(C(=O)Nc2cccc(F)c2F)C1=O (stereo not drawn)
Return: 80

----------
Tested on: velvetleaf (Abutilon theophrasti)
Test: Test G Pre-Emergence Protocol
Assay type: in vivo
Details: Abutilon theophrasti, pre-emergence, 312 h, 62.5 g ai/ha, evaluated after 13 days, 100=total damage to plant, 0=no damage to plant, read-out: plant damage rating, Velvetleaf
observation.type: pest or weed control at 62.5 g/ha (%)
Give the value in % but do not write % after it.

Some entries whose results are on file:
>  <compound>
CN1C[C@H](c2ccc3c(c2)OCCO3)[C@@H](C(=O)Nc2cccc(F)c2F)C1=O (racemic)

>  <target.desc>
velvetleaf (Abutilon theophrasti)

>  <value.unit>
%

>  <pest or weed control at 62.5 g/ha>
0

$$$$
>  <compound>
CN1C[C@H](c2ccc(C(F)(F)F)cc2)[C@@H](C(=O)Nc2ncccc2[N+](=O)[O-])C1=O (racemic)

>  <target.desc>
velvetleaf (Abutilon theophrasti)

>  <value.unit>
%

>  <pest or weed control at 62.5 g/ha>
0

$$$$
>  <compound>
CN1C[C@@H](c2ccc(C(F)(F)F)cc2)[C@H](C(=O)Nc2n[nH]c(C(F)(F)F)n2)C1=O (racemic)

>  <target.desc>
velvetleaf (Abutilon theophrasti)

>  <value.unit>
%

>  <pest or weed control at 62.5 g/ha>
0

$$$$

Enquiry: So what does the record say about pest or weed control at 62.5 g/ha for CN1C[C@@H](c2ccc(C(F)(F)F)cc2)[C@H](C(=O)Nc2ccncc2Cl)C1=O (racemic) ?
Return: 0

Enquiry: Next up: CN1C[C@H](c2ccc(C(F)(F)F)cc2)[C@@H](C(=O)Nc2ccc(Cl)cc2[N+](=O)[O-])C1=O (racemic)
Return: 0

Enquiry: Next up: CN1C[C@H](c2ccc(C(F)(F)F)cc2)[C@@H](C(=O)Nc2ccc(F)c(Cl)c2)C1=O (racemic)
Return: 0

Enquiry: Next up: C=C(C)c1ccccc1NC(=O)[C@H]1C(=O)N(C)C[C@@H]1c1ccc(C(F)(F)F)cc1 (racemic)
Return: 0

Enquiry: Next up: CN1C[C@H](c2ccc(C(F)(F)F)cc2)[C@@H](C(=O)Nc2cccc(C(F)F)c2)C1=O (racemic)
Return: 0

----------
System: barnyardgrass (Echinochloa crus-galli)
Test: Test G Pre-Emergence Protocol
Type: in vivo
Conditions: Echinochloa crus-galli, pre-emergence, 312 h, 62.5 g ai/ha, evaluated after 13 days, 100=total damage to plant, 0=no damage to plant, read-out: Barnyardgrass damage rating
observation.type: pest or weed control at 62.5 g/ha (%)
Give the value in % but do not write % after it.

>  <molecule>
CN1CC(C2CCN=C(C(C)(C)C)N2)C(C(=O)Nc2ccc(F)c(F)c2F)C1=O (stereo not shown) [Compound 1771]

>  <pest or weed control at 62.5 g/ha [%]>
0

$$$$

Enquiry: So what does the record say about pest or weed control at 62.5 g/ha for Cc1c(F)cccc1NC(=O)[C@@H]1C(=O)N(C)C[C@H]1c1cccc(OCC(F)(F)F)c1 (racemic) [Compound 1764] ?
Return: 70

Enquiry: Next up: Cc1c(F)cccc1NC(=O)[C@@H]1C(=O)N(C)C[C@H]1c1cc(Cl)c(F)c(Cl)c1 (racemic) [Compound 1792]
Return: 70

Enquiry: Next up: CCS(=O)(=O)c1ccccc1NC(=O)[C@H]1C(=O)N(C)C[C@@H]1c1ccc(C(F)(F)F)cc1 (racemic) [Compound 1664]
Return: 40

Enquiry: Next up: CN1C[C@H](c2cccc(C(C)(C)C#N)c2)[C@@H](C(=O)Nc2ccccc2S(C)(=O)=O)C1=O (racemic) [Compound 1784]
Return: 10

Enquiry: Next up: CN1C[C@@H](c2ccc(C(F)(F)F)cc2)[C@H](C(=O)Nc2ccnc(Cl)c2F)C1=O (racemic) [Compound 1656]
Return: 0

Enquiry: Next up: CCOc1cc([C@@H]2CN(C)C(=O)[C@H]2C(=O)Nc2cccc(F)c2F)cc(C(F)(F)F)n1 (racemic) [Compound 1753]
Return: 70

----------
Each entry below lists one item and its recorded pest or weed control at 125 g/ha value.
Tested on: giant foxtail (Setaria faberii)
Assay: Test A preemergence
Assay type: in vivo
Settings: Setaria faberi, pre-emergence, 240 h, Preemergence, 125 g ai/ha; 0 to 100 scale (0 no effect, 100 complete control); read-out: Plant response rating, Foxtail, Giant
Give the value in % but do not write % after it.

Some entries whose results are on file:
>  <molecule>
COc1ccc([C@H]2CN(C)C(=O)[C@@H]2C(=O)Nc2ccccc2F)cc1 [Compound 1342]

>  <target.desc>
giant foxtail (Setaria faberii)

>  <observation.type>
pest or weed control at 125 g/ha

>  <endpoint.value>
100

$$$$
>  <molecule>
Cc1c(F)ccc([C@H]2CNC(=O)[C@@H]2C(=O)Nc2ccc(F)cc2F)c1F [Compound 1328]

>  <target.desc>
giant foxtail (Setaria faberii)

>  <observation.type>
pest or weed control at 125 g/ha

>  <endpoint.value>
50

$$$$
>  <molecule>
Cc1ccc([C@H]2CN(C)C(=O)[C@@H]2C(=O)Nc2ccccc2F)cc1Cl [Compound 1384]

>  <target.desc>
giant foxtail (Setaria faberii)

>  <observation.type>
pest or weed control at 125 g/ha

>  <endpoint.value>
90

$$$$
>  <molecule>
COc1c([C@H]2CN(C)C(=O)[C@@H]2C(=O)Nc2cccc(F)c2F)cccc1C(F)(F)F [Compound 1339]

>  <target.desc>
giant foxtail (Setaria faberii)

>  <observation.type>
pest or weed control at 125 g/ha

>  <endpoint.value>
90

$$$$
>  <molecule>
CN1C[C@H](c2ccc3c(c2)OC(F)(F)O3)[C@@H](C(=O)Nc2cnccc2C(F)(F)F)C1=O [Compound 1354]

>  <target.desc>
giant foxtail (Setaria faberii)

>  <observation.type>
pest or weed control at 125 g/ha

>  <endpoint.value>
100

$$$$
>  <molecule>
CS(=O)(=O)c1ccccc1NC(=O)[C@H]1C(=O)NC[C@@H]1c1ccc2c(c1)CCO2 [Compound 1320]

>  <target.desc>
giant foxtail (Setaria faberii)

>  <observation.type>
pest or weed control at 125 g/ha

>  <endpoint.value>
0

$$$$

Enquiry: So what does the record say about pest or weed control at 125 g/ha for O=C1NC[C@H](c2cnc(C(F)(F)F)nc2)[C@H]1C(=O)Nc1cccc(F)c1F [Compound 1382] ?
Return: 0

----------
Test system: giant foxtail (Setaria faberii)
Assay: Test A postemergence
Assay type: in vivo
Details: Setaria faberi, post-emergence, 240 h, 125 g ai/ha, postemergence, visual injury vs untreated controls after approx. 10 d; 0 = no effect, 100 = complete control; read-out: Foxtail, Giant plant response rating (0 to 100 scale)
Please respond with YES when measured pest or weed control at 125 g/ha is strictly beneath 60%, and with NO in all other cases.

Enquiry: Dear reviewer, please state whether COc1cc([C@H]2CN(C)C(=O)[C@@H]2C(=O)Nc2ccccc2F)cc(OC)c1OC has pest or weed control at 125 g/ha strictly beneath 60%.
Return: NO

Enquiry: Next up: Cc1ccc([C@H]2CNC(=O)[C@@H]2C(=O)Nc2c(F)cccc2F)cc1C
Return: YES

Enquiry: Next up: CN1C[C@H](c2ccc3ncccc3c2)[C@@H](C(=O)Nc2cccc(F)c2F)C1=O
Return: YES

Enquiry: Next up: N#Cc1ccc([C@H]2CNC(=O)[C@@H]2C(=O)Nc2ccccc2F)cc1F
Return: YES

Enquiry: Next up: N#Cc1cc([C@H]2CNC(=O)[C@]2(O)C(=O)Nc2ccccc2F)ccc1F
Return: YES

Enquiry: Next up: CN1C[C@H](c2ccc(Cl)c(F)c2)[C@@H](C(=O)Nc2cccc(F)c2F)C1=O
Return: NO
